# target.or.test.system: HLA-B*40:01
# experiment: IEDB peptide-MHC binding, purified MHC/competitive/radioactivity; filed as Kd, often an IC50 or EC50 that approximates it; bounds were set here for any values at or beyond the usual limits of such assays
# conditions.used: source organism: Mammarenavirus lassaense
assay.metric: pKd
# reply with the number alone; pKd is -log10 of concentration in mol/L

Given the sequence KENLYIKSI , what is its reported pKd?
4.85

----------
# target.or.test.system: HLA-A*68:02
# experiment: IEDB peptide-MHC binding, purified MHC/competitive/fluorescence; filed as Kd, often an IC50 or EC50 that approximates it; bounds were set here for any values at or beyond the usual limits of such assays
# conditions.used: source organism: Pleistophora sp. LS
assay.metric: Kd

Given the sequence VELQIGWTV , what is its reported Kd?
≥ 20 µM

----------
# target.or.test.system: HLA-A*02:19
# experiment: IEDB peptide-MHC binding, purified MHC/direct/fluorescence; filed as Kd, often an IC50 or EC50 that approximates it; bounds were set here for any values at or beyond the usual limits of such assays
# conditions.used: source organism: Vibrio parahaemolyticus AQ3810
pKd: −log10 of the molar value.
assay.metric: pKd

# returns recorded pKd (system: HLA-A*02:19) for RLDKPLWLH
≤ 4.70

----------
# target.or.test.system: HLA-B*15:01
# experiment: IEDB peptide-MHC binding, purified MHC/direct/fluorescence; filed as Kd, often an IC50 or EC50 that approximates it; bounds were set here for any values at or beyond the usual limits of such assays
# conditions.used: source organism: Yellow fever virus
pKd: −log10 of the molar value.
assay.metric: pKd

{"columns": ["sequence.entry", "measured.result"],
 "data": [
  ["SCRVKLSAL", "≤ 4.70"]
]}

Given the sequence GSRAYRNAL , what is its reported pKd?
≤ 4.70

----------
# target.or.test.system: HLA-A*11:01
# experiment: IEDB peptide-MHC binding, purified MHC/competitive/radioactivity; filed as Kd, often an IC50 or EC50 that approximates it; bounds were set here for any values at or beyond the usual limits of such assays
# conditions.used: source organism: Mammarenavirus machupoense
assay.metric: pKd
# reply with the number alone; pKd is -log10 of concentration in mol/L

Given the sequence LMAFANQIHH , what is its reported pKd?
4.82

----------
# target.or.test.system: HLA-A*29:02
# experiment: IEDB peptide-MHC binding, purified MHC/competitive/radioactivity; filed as Kd, often an IC50 or EC50 that approximates it; bounds were set here for any values at or beyond the usual limits of such assays
# conditions.used: source organism: Mammarenavirus guanaritoense
assay.metric: pKd
# reply with the number alone; pKd is -log10 of concentration in mol/L

{"columns": ["sequence.entry", "pKd"],
 "data": [
  ["CTLEGVWAPF", 6.02],
  ["VWKSGILQLF", 5.59]
]}

// next entry
Given the sequence KYILIQAGF , what is its reported pKd?
5.43

----------
# target.or.test.system: HLA-B*57:01
# experiment: IEDB peptide-MHC binding, purified MHC/competitive/fluorescence; filed as Kd, often an IC50 or EC50 that approximates it; bounds were set here for any values at or beyond the usual limits of such assays
# conditions.used: source organism: Coxiella burnetii 'MSU Goat Q177'
pKd: −log10 of the molar value.
assay.metric: pKd

Given the sequence YYLIKYLHV , what is its reported pKd?
≤ 4.70

----------
# target.or.test.system: HLA-B*08:02
# experiment: IEDB peptide-MHC binding, purified MHC/competitive/fluorescence; filed as Kd, often an IC50 or EC50 that approximates it; bounds were set here for any values at or beyond the usual limits of such assays
# conditions.used: source organism: Pleistophora sp. LS
assay.metric: Kd

# returns recorded Kd (system: HLA-B*08:02) for VELQIGWTV
≥ 20 µM

----------
# target.or.test.system: HLA-A*02:19
# experiment: IEDB peptide-MHC binding, purified MHC/direct/fluorescence; filed as Kd, often an IC50 or EC50 that approximates it; bounds were set here for any values at or beyond the usual limits of such assays
# conditions.used: source organism: Vibrio cholerae O395
pKd: −log10 of the molar value.
assay.metric: pKd

Given the sequence VVSEIDLQW , what is its reported pKd?
≤ 4.70

----------
# target.or.test.system: HLA-A*03:01
# experiment: IEDB peptide-MHC binding, purified MHC/direct/fluorescence; filed as Kd, often an IC50 or EC50 that approximates it; bounds were set here for any values at or beyond the usual limits of such assays
# conditions.used: source organism: Brucella abortus
assay.metric: Kd

Given the sequence EKPPVRPIF , what is its reported Kd?
≥ 20 µM

----------
# target.or.test.system: HLA-B*39:01
# experiment: IEDB peptide-MHC binding, purified MHC/competitive/fluorescence; filed as Kd, often an IC50 or EC50 that approximates it; bounds were set here for any values at or beyond the usual limits of such assays
# conditions.used: source organism: Orthohantavirus puumalaense
pKd: −log10 of the molar value.
assay.metric: pKd

Given the sequence ATKDSFQSF , what is its reported pKd?
≤ 4.70

----------
# target.or.test.system: HLA-B*07:02
# experiment: IEDB peptide-MHC binding, purified MHC/direct/fluorescence; filed as Kd, often an IC50 or EC50 that approximates it; bounds were set here for any values at or beyond the usual limits of such assays
# conditions.used: source organism: Bacillus anthracis
assay.metric: Kd (nM)
Note: unit nM is implicit; provide only the numeric part.

Given the sequence TVIRFWHAM , what is its reported Kd?
1810

----------
# target.or.test.system: HLA-A*02:17
# experiment: IEDB peptide-MHC binding, purified MHC/competitive/radioactivity; filed as Kd, often an IC50 or EC50 that approximates it; bounds were set here for any values at or beyond the usual limits of such assays
# conditions.used: source organism: Dengue virus 2 Puerto Rico/PR159-S1/1969
assay.metric: Kd (nM)
Note: unit nM is implicit; provide only the numeric part.

Given the sequence TLYAVATTFI , what is its reported Kd?
1300

----------
# target.or.test.system: HLA-A*02:06
# experiment: IEDB peptide-MHC binding, purified MHC/competitive/radioactivity; filed as Kd, often an IC50 or EC50 that approximates it; bounds were set here for any values at or beyond the usual limits of such assays
# conditions.used: source organism: Dengue virus 2 Jamaica/1409/1983
pKd: −log10 of the molar value.
Decision: pKd compared against 8; not below it gives criterion met, below it gives criterion not met.

Solved entries:
{"columns": ["sequence.entry", "category"],
 "data": [
  ["SIILEFFLIV", "criterion not met"],
  ["LTIMDLHPGA", "criterion not met"],
  ["LTAALLLLV", "criterion met"],
  ["LLLLTLLATV", "criterion not met"],
  ["LQMEDKAWL", "criterion not met"]
]}

Does TAAAWYLWEV have a reported pKd of at least 8?
criterion met

----------
# target.or.test.system: HLA-A*01:01
# experiment: IEDB peptide-MHC binding, purified MHC/direct/fluorescence; filed as Kd, often an IC50 or EC50 that approximates it; bounds were set here for any values at or beyond the usual limits of such assays
# conditions.used: source organism: Coxiella burnetii
assay.metric: pKd
# reply with the number alone; pKd is -log10 of concentration in mol/L

# returns recorded pKd (system: HLA-A*01:01) for SYGNANVSF
5.74

----------
Here the recorded pKd is given for each entry.
# target.or.test.system: HLA-B*08:01
# experiment: IEDB peptide-MHC binding, purified MHC/competitive/radioactivity; filed as Kd, often an IC50 or EC50 that approximates it; bounds were set here for any values at or beyond the usual limits of such assays
# conditions.used: source organism: Dengue virus 2 Jamaica/1409/1983
# reply with the number alone; pKd is -log10 of concentration in mol/L

Recorded pKd, per entry:
{"columns": ["sequence.entry", "pKd"],
 "data": [
  ["RLRMDKLQL", 6.76],
  ["NRRRRTAGV", 6.92]
]}

Given the sequence MGLGKGWPL , what is its reported pKd?
8.06

Let us now turn to VAFLRFLTI
7.98

----------
# target.or.test.system: HLA-A*02:02
# experiment: IEDB peptide-MHC binding, purified MHC/competitive/radioactivity; filed as Kd, often an IC50 or EC50 that approximates it; bounds were set here for any values at or beyond the usual limits of such assays
# conditions.used: source organism: Trypanosoma cruzi
assay.metric: Kd (µM)
Note: unit µM is implicit; provide only the numeric part.

Given the sequence EVLRPTTLV , what is its reported Kd?
6.57

----------
Here the recorded pKd is given for each entry.
# target.or.test.system: HLA-B*57:01
# experiment: IEDB peptide-MHC binding, purified MHC/direct/fluorescence; filed as Kd, often an IC50 or EC50 that approximates it; bounds were set here for any values at or beyond the usual limits of such assays
# conditions.used: source organism: Marburg virus - Musoke, Kenya, 1980
pKd: −log10 of the molar value.

Recorded pKd, per entry:
{"columns": ["sequence.entry", "pKd"],
 "data": [
  ["SSNAKNSEW", 6.87],
  ["SEINNLNLT", "≤ 4.70"]
]}

Given the sequence ALFHKVQSY , what is its reported pKd?
≤ 4.70
